- Tested on: S. pneumoniae (SV-1)
- measurement_description: In vitro antibacterial activity (MIC), S. pneumoniae
- Assay type: cell-based
- cond: Streptococcus pneumoniae; strain SV-1; lowest concentration preventing macroscopically visible growth; read-out: Minimum Inhibitory concentrations S. pneumoniae (SV-1)
Please provide measured MIC for the entries that follow.
One number for each entry, in µg/mL.

Before answering, review these 8 worked examples.
INSERT INTO results (molecule, recorded_number) VALUES
  ('CNC(=O)[C@H]1CN(c2cc(F)c(N3CCC/S(=N\C(=O)C(F)(F)F)CC3)c(F)c2)C(=O)O1 (stereo in doubt)', 8),
  ('NC(=O)[C@H]1CN(c2ccc(N3CCC[S+]([O-])CC3)c(F)c2)C(=O)O1 (some centres unmarked)', 4),
  ('CONC(=O)[C@H]1CN(c2cc(F)c(N3CCCS(=O)(=O)CC3)c(F)c2)C(=O)O1', 8),
  ('NC(=O)[C@H]1CN(c2cc(F)c(N3CCC/S(=N\C(=O)C(F)(F)F)CC3)c(F)c2)C(=O)O1 (some centres unmarked)', 8),
  ('CNC(=O)[C@H]1CN(c2ccc(N3CCCS(=O)(=O)CC3)c(F)c2)C(=O)O1', 2),
  ('CNC(=O)[C@H]1CN(c2cc(F)c(N3CCCSCC3)c(F)c2)C(=O)O1', 4),
  ('CNC(=O)[C@H]1CN(c2cc(F)c(N3CCCS(=O)(=O)CC3)c(F)c2)C(=O)O1', 4),
  ('NC(=O)[C@H]1CN(c2cc(F)c(N3CCCS(=O)(=O)CC3)c(F)c2)C(=O)O1', 4);

For the 3 molecules below, give their MIC values.
1. CNC(=O)[C@H]1CN(c2ccc(N3CCC[S+]([O-])CC3)c(F)c2)C(=O)O1 (some centres unmarked)
2. CNC(=O)[C@H]1CN(c2ccc(N3CCCSCC3)c(F)c2)C(=O)O1
3. NC(=O)[C@H]1CN(c2cc(F)c(N3CCCSCC3)c(F)c2)C(=O)O1

A)
[4, 8, 4]

====

- Tested on: S. aureus (UC-76)
- measurement_description: In vitro antibacterial activity (MIC), S. aureus
- Format: cell-based
- cond: Staphylococcus aureus, UC76; strain UC-76; lowest concentration preventing macroscopically visible growth; read-out: Minimum Inhibitory concentrations S. aureus (UC-76)
Please provide measured MIC for the entries that follow.
One number for each entry, in µg/mL.

For the 3 compounds below, give their MIC values.
1. CNC(=O)[C@H]1CN(c2cc(F)c(N3CCCS(=O)(=O)CC3)c(F)c2)C(=O)O1
2. CNC(=O)[C@H]1CN(c2cc(F)c(N3CCCSCC3)c(F)c2)C(=O)O1
3. CNC(=O)[C@H]1CN(c2ccc(N3CCC[S+]([O-])CC3)c(F)c2)C(=O)O1 (stereo partly drawn)

A)
2
2
2
